# assayed-target: T-cell surface antigen CD2 (Homo sapiens) (UniProt P06729)
# Sequence (P06729 whole entry): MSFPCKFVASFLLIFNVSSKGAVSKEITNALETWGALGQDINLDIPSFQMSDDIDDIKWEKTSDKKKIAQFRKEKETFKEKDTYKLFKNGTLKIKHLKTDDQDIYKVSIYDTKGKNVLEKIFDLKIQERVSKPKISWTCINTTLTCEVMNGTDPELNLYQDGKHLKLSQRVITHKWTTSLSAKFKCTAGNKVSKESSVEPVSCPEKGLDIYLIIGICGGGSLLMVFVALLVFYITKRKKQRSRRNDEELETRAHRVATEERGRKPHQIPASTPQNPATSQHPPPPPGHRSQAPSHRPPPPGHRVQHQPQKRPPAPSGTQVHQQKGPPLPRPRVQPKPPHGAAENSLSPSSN
# assay-info: Inhibition of CD2-CD58 interaction assessed as inhibition of CD2 expressing human Jurkat T cell adhesion to CD58 expressing human Caco-2 cells at 90 uM after 45 mins by microplate fluorescence analysis
# Type: cell-based
Positions of bridges follow the written chain, without caps; N, C: chain ends. Residues, ends and D or L forms follow the SMILES beside them.
readout-label: inhibition (%)

[
  {
    "molecule": "CC[C@H](C)[C@@H]1NC(=O)[C@H](CC(=O)O)NC(=O)[C@H](CC(=O)O)NC(=O)CNC(=O)[C@@H]2CCCN2C(=O)[C@H](CC(=O)O)NC(=O)[C@H](Cc2ccc(O)cc2)NC(=O)[C@H]([C@@H](C)CC)NC(=O)[C@@H](N)CCC(=O)NCCCC[C@@H](C(=O)O)NC1=O (H-EIYDPGDDIK-OH; lactam 1-10)",
    "readout-label": "inhibition",
    "unit-of-measure": "%",
    "reported-measurement": 80
  },
  {
    "molecule": "CC[C@H](C)[C@@H]1NC(=O)[C@H](CC(=O)O)NC(=O)[C@H](CC(=O)O)NC(=O)CNC(=O)[C@@H]2CCCN2C(=O)[C@H](CC(=O)O)NC(=O)[C@H](Cc2ccc(O)cc2)NC(=O)[C@H]([C@@H](C)CC)NC(=O)[C@H](CO)NC(=O)[C@@H](N)CCC(=O)NCCCC[C@@H](C(=O)O)NC1=O (H-ESIYDPGDDIK-OH; lactam 1-11)",
    "readout-label": "inhibition",
    "unit-of-measure": "%",
    "reported-measurement": 80
  },
  {
    "molecule": "CC[C@H](C)[C@@H]1NC(=O)[C@H](CO)NC(=O)[C@@H](N)C(C)(C)SSC[C@@H](C(=O)O)NC(=O)[C@@H](CCCCN)NC(=O)[C@H]([C@@H](C)CC)NC(=O)[C@H](CC(=O)O)NC(=O)[C@H](CC(=O)O)NC(=O)CNC(=O)[C@@H]2CCCN2C(=O)[C@H](CC(=O)O)NC(=O)[C@H](Cc2ccc(O)cc2)NC1=O",
    "readout-label": "inhibition",
    "unit-of-measure": "%",
    "reported-measurement": 30
  },
  {
    "molecule": "CC[C@H](C)[C@@H]1NC(=O)[C@H](CC(=O)O)NC(=O)[C@@H](CC(=O)O)NC(=O)CNC(=O)[C@@H]2CCCN2C(=O)[C@H](CC(=O)O)NC(=O)[C@H](Cc2ccc(O)cc2)NC(=O)[C@H]([C@@H](C)CC)NC(=O)[C@H](CCC(=O)O)NC(=O)[C@H](CCCCN)NC1=O",
    "readout-label": "inhibition",
    "unit-of-measure": "%",
    "reported-measurement": 80
  }
]
